Reported IC50 by item:
target_desc: D(1A) dopamine receptor (Homo sapiens)
assay_details: Antagonist activity at D1 receptor (unknown origin) expressed in CHOK1 cells assessed as inhibition of SKF38393-induced cAMP accumulation measured after 30 mins

// worked examples, IC50 included
COc1cc2c(cc1O)CC1c3cc4c(cc3CCN1C2)OCO4 (racemic) ... > 10 µM
COc1cc2c(cc1OC)C1Cc3c(cc(O)c(OC)c3OC)CN1CC2 (racemic) ... > 10 µM

The compound COc1cc2c(cc1O)C1Cc3cc(OC)c(OC)cc3CN1CC2 (racemic) , when measured on D(1A) dopamine receptor (Homo sapiens), yielded IC50 of > 10 µM

----------
Reported Activity by item:
target_desc: D(1A) dopamine receptor (Homo sapiens, UniProt P21728)
Sequence (P21728 whole entry): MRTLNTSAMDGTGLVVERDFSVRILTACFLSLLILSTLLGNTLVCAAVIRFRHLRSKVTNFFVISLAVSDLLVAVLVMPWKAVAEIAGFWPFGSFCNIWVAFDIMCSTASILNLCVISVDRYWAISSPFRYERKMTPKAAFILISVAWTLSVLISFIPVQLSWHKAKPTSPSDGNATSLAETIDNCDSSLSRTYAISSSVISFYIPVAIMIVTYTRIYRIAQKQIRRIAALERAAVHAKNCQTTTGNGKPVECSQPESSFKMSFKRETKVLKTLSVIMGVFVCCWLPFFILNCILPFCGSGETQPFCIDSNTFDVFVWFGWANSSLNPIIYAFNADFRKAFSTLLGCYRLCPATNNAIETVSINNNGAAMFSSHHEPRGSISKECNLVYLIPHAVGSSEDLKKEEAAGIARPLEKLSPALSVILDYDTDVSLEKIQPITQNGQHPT
assay_details: Agonist activity at D1 receptor (unknown origin) expressed in CHOK1 cells assessed as increase in cAMP accumulation at 10 uM measured after 30 mins
Format: functional, cell-based
Give just the number in %; leave the unit off.

The compound COc1cc2c(cc1O)CC1c3cc4c(cc3CCN1C2)OCO4 (racemic) , when measured on D(1A) dopamine receptor (Homo sapiens, UniProt P21728), yielded Activity of -3.7

The compound `COc1ccc2c(c1O[C@@H]1O[C@H](CO)[C@@H](O)[C@H](O)[C@H]1O)CN1CCc3cc4c(cc3[C@H]1C2)OCO4` , when measured on D(1A) dopamine receptor (Homo sapiens, UniProt P21728), yielded Activity of -7.46

The compound COc1cc2c(cc1O)CC1c3cc(OC)c(OC)cc3CCN1C2 (racemic) , when measured on D(1A) dopamine receptor (Homo sapiens, UniProt P21728), yielded Activity of -5.16

----------
target_desc: D(2) dopamine receptor (Homo sapiens, UniProt P14416)
Sequence (P14416 whole entry): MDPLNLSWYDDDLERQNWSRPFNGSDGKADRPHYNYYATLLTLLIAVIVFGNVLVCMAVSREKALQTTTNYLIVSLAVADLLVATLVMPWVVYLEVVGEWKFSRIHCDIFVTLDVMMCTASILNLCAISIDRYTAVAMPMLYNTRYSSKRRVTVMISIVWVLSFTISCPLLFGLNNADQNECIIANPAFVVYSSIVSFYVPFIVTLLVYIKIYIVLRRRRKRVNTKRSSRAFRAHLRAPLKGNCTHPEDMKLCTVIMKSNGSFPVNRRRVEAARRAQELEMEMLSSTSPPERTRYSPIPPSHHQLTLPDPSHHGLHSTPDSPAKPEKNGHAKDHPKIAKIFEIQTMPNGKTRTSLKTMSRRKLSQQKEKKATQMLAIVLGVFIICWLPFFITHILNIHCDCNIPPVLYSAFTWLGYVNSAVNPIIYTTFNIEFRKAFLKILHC
assay_details: Antagonist activity at D2 receptor (unknown origin) expressed in CHOK1 cells assessed as inhibition of dopamine-induced calcium flux preincubated for 60 mins at 37 degC followed by 15 mins incubation under room temperature and subsequent dopamine addition measured after 20 secs for 100 secs by calcium-4 dye based FLIPR assay
Decide using IC50 alone. Strictly below 500 nM: class 1. Equal to or above 500 nM: class 0.

Past entries and their recorded results:
COc1cc2c(cc1O)CC1c3cc4c(cc3CCN1C2)OCO4 (racemic) ... class 0
COc1ccc2c(c1OC(C)=O)CN1CCc3cc4c(cc3C1C2)OCO4 (racemic) ... class 1
COc1cc2c(cc1OC)C1Cc3ccc(O)cc3CN1CC2 (racemic) ... class 0

Q) Dear colleague, could you confirm whether IC50 of `COc1ccc2c(c1O[C@@H]1O[C@H](CO)[C@@H](O)[C@H](O)[C@H]1O)CN1CCc3cc4c(cc3[C@H]1C2)OCO4` falls below 500 nM? Thanks.
A) class 0

Q) Dear colleague, could you confirm whether IC50 of Oc1cccc2c1CC1c3cc4c(cc3CCN1C2)OCO4 (racemic) falls below 500 nM? Thanks.
A) class 1

Q) Dear colleague, could you confirm whether IC50 of `COc1ccc2c(c1O[C@@H]1O[C@H](CO)[C@@H](O)[C@H](O)[C@H]1O)CN1CCc3cc4c(cc3[C@@H]1C2)OCO4` falls below 500 nM? Thanks.
A) class 0

Q) Dear colleague, could you confirm whether IC50 of COc1ccc2c(c1O)CN1CCc3cc(O)c(O)cc3C1C2 (racemic) falls below 500 nM? Thanks.
A) class 1
